Entries and their pIC50 values follow.
# SUBJECT OF TEST: T1, human IGF-1 receptor (human, UniProt P08069 31-1367)
# T1 construct: whole, on cells
# PROTOCOL SUMMARY: SPA competition vs 125I-IGF-1, human IGF-1R membranes (Example 3)
Positions of bridges follow the written chain, without caps; N, C: chain ends. Chains are numbered I, II in the order given. No end group written: not given here.
To interpret pIC50, take it as minus log10 of a concentration measured in moles per litre.

BINDER	pIC50
IGF-1 A:B (E10Y16L17) DPI (disulfide I:7-II:6 (inferred); not fully specified (bridges); cysteine pairing not given here, A chain, then B chain; DPI as in m25) A chain: GIVDECCFRSCDLRRLEMYCA-NH2 B chain: GPETLCGAELVDALYLVCGDRGFY-NH2	7.64

Query: Which pIC50 value belongs to IGF-1 A:B (H5D10Y16L17) DPI (disulfide I:7-II:6 (inferred); not fully specified (bridges); ends not checked; also: C-terminal amide (chain not given here)) chain 1: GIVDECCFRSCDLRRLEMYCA-NH2 chain 2: GPEHLCGADLVDALYLVCGDRGFY-NH2 ?
Result: 8.33
